Below, each of the compounds is paired with its reported percentage damage caused to the plant, IPOHE value.
# Test system: Ipomoea hederacea (IPOHE)
# Experiment: Pre-emergence herbicide glasshouse test
# Type: in vivo
# Test parameters: 250 g/ha, evaluated after 13 days, five-point scale
Parameter measured: percentage damage caused to the plant, IPOHE

[
  {
    "Compound": "O=C(c1ccc(F)cn1)c1nc(C(F)(F)F)nc2cccc(Oc3ncc(Cl)cn3)c12 [Compound 1.027]",
    "Recorded result": "1 (1=0-20%)"
  },
  {
    "Compound": "FC(F)(F)c1nc(CCC2CCOCC2)c2c(Oc3ncc(Cl)cn3)cccc2n1 [Compound 1.044]",
    "Recorded result": "5 (5=81-100%)"
  },
  {
    "Compound": "C=CCON=CCCc1nc(C(F)(F)F)nc2cccc(Oc3ncc(Cl)cn3)c12 [Compound 1.067]",
    "Recorded result": "1 (1=0-20%)"
  },
  {
    "Compound": "CO/N=C/CCc1nc(C(F)(F)F)nc2cccc(Oc3ncc(Cl)cn3)c12 [Compound 1.025]",
    "Recorded result": "4 (4=61-80%)"
  },
  {
    "Compound": "FC(F)(F)CCC(Br)c1nc(C(F)(F)F)nc2cccc(Oc3ncc(Cl)cn3)c12 (stereo not drawn) [Compound 1.071]",
    "Recorded result": "1 (1=0-20%)"
  },
  {
    "Compound": "FC(F)(F)c1nc(CCC=NOCC2CC2)c2c(Oc3ncc(Cl)cn3)cccc2n1 [Compound 1.005]",
    "Recorded result": "1 (1=0-20%)"
  },
  {
    "Compound": "Fc1cnc(Oc2cccc3nc(C(F)(F)F)nc(CCC4CC4)c23)nc1 [Compound 1.064]",
    "Recorded result": "5 (5=81-100%)"
  },
  {
    "Compound": "OCC(O)CCc1nc(C(F)(F)F)nc2cccc(Oc3ncc(Cl)cn3)c12 (stereo not drawn) [Compound 1.037]",
    "Recorded result": "1 (1=0-20%)"
  },
  {
    "Compound": "FC(F)(F)c1nc(CCC2COC2)c2c(Oc3ncc(Cl)cn3)cccc2n1 [Compound 1.033]",
    "Recorded result": "5 (5=81-100%)"
  },
  {
    "Compound": "ON=CCCc1nc(C(F)(F)F)nc2cccc(Oc3ncc(Cl)cn3)c12 [Compound 1.021]",
    "Recorded result": "1 (1=0-20%)"
  },
  {
    "Compound": "CCON=CCc1nc(C(F)(F)F)nc2cccc(Oc3ncc(Cl)cn3)c12 [Compound 1.006]",
    "Recorded result": "1 (1=0-20%)"
  },
  {
    "Compound": "Cn1nc(-c2nc(C(F)(F)F)nc3cccc(Oc4ncc(Cl)cn4)c23)cc1C(F)F [Compound 1.016]",
    "Recorded result": "1 (1=0-20%)"
  }
]

---

# System: Amaranthus palmeri (AMAPA)
# Experiment: Pre-emergence herbicide glasshouse test
# Format: in vivo
# Test parameters: 250 g/ha, evaluated after 13 days, five-point scale
Below, each of the molecules is paired with its reported percentage damage caused to the plant, AMAPA value.
Parameter measured: percentage damage caused to the plant, AMAPA

[
  {
    "Molecule": "FC(F)(F)c1nc(CCC2CC2)c2c(Oc3ncc(Cl)cn3)ccc(Br)c2n1",
    "Recorded result": "2 (2=21-40%)"
  },
  {
    "Molecule": "FC(F)(F)CCC(Br)c1nc(C(F)(F)F)nc2cccc(Oc3ncc(Cl)cn3)c12 (stereo not drawn)",
    "Recorded result": "5 (5=81-100%)"
  },
  {
    "Molecule": "Fc1cnc(Oc2cccc3nc(C(F)(F)F)nc(CCC4CC4)c23)nc1",
    "Recorded result": "5 (5=81-100%)"
  },
  {
    "Molecule": "FC(F)(F)c1nc(CCC2COC2)c2c(Oc3ncc(Cl)cn3)cccc2n1",
    "Recorded result": "5 (5=81-100%)"
  },
  {
    "Molecule": "C=CCON=CCCc1nc(C(F)(F)F)nc2cccc(Oc3ncc(Cl)cn3)c12 [Compound 1.011]",
    "Recorded result": "5 (5=81-100%)"
  },
  {
    "Molecule": "C=CCON=CCCc1nc(C(F)(F)F)nc2cccc(Oc3ncc(Cl)cn3)c12 [Compound 1.067]",
    "Recorded result": "5 (5=81-100%)"
  },
  {
    "Molecule": "FC(F)(F)c1nc(C2CC2)c2c(Oc3ncc(Cl)cn3)cccc2n1",
    "Recorded result": "5 (5=81-100%)"
  },
  {
    "Molecule": "FC(F)(F)c1nc(CC=NOCC2CC2)c2c(Oc3ncc(Cl)cn3)cccc2n1",
    "Recorded result": "2 (2=21-40%)"
  },
  {
    "Molecule": "O=C(c1ccccn1)c1nc(C(F)(F)F)nc2cccc(Oc3ncc(Cl)cn3)c12",
    "Recorded result": "1 (1=0-20%)"
  },
  {
    "Molecule": "FC(F)(F)c1nc(CCC2CC2)c2c(Oc3ncc(Cl)cn3)cccc2n1",
    "Recorded result": "5 (5=81-100%)"
  },
  {
    "Molecule": "CO/N=C\\CCc1nc(C(F)(F)F)nc2cccc(Oc3ncc(Cl)cn3)c12",
    "Recorded result": "5 (5=81-100%)"
  },
  {
    "Molecule": "CCO/N=C\\CCc1nc(C(F)(F)F)nc2cccc(Oc3ncc(Cl)cn3)c12",
    "Recorded result": "4 (4=61-80%)"
  },
  {
    "Molecule": "O=C(c1ccc(F)cn1)c1nc(C(F)(F)F)nc2cccc(Oc3ncc(Cl)cn3)c12",
    "Recorded result": "2 (2=21-40%)"
  },
  {
    "Molecule": "FC(F)(F)c1nc(CCCC2CC2)c2c(Oc3ncc(Cl)cn3)cccc2n1",
    "Recorded result": "5 (5=81-100%)"
  },
  {
    "Molecule": "CC(=O)N1CCC(CCc2nc(C(F)(F)F)nc3cccc(Oc4ncc(Cl)cn4)c23)CC1",
    "Recorded result": "3 (3=41-60%)"
  },
  {
    "Molecule": "CC(=O)c1nc(C(F)(F)F)nc2cccc(Oc3ncc(Cl)cn3)c12",
    "Recorded result": "5 (5=81-100%)"
  },
  {
    "Molecule": "CC(=NOCC1CC1)c1nc(C(F)(F)F)nc2cccc(Oc3ncc(Cl)cn3)c12 [Compound 1.003]",
    "Recorded result": "1 (1=0-20%)"
  },
  {
    "Molecule": "O=C(c1ccncc1)c1nc(C(F)(F)F)nc2cccc(Oc3ncc(Cl)cn3)c12",
    "Recorded result": "4 (4=61-80%)"
  },
  {
    "Molecule": "O=CCCc1nc(C(F)(F)F)nc2cccc(Oc3ncc(Cl)cn3)c12",
    "Recorded result": "1 (1=0-20%)"
  },
  {
    "Molecule": "ON=CCCc1nc(C(F)(F)F)nc2cccc(Oc3ncc(Cl)cn3)c12",
    "Recorded result": "4 (4=61-80%)"
  },
  {
    "Molecule": "OCC(O)CCc1nc(C(F)(F)F)nc2cccc(Oc3ncc(Cl)cn3)c12 (stereo not drawn)",
    "Recorded result": "1 (1=0-20%)"
  },
  {
    "Molecule": "O=C(c1cccnc1)c1nc(C(F)(F)F)nc2cccc(Oc3ncc(Cl)cn3)c12",
    "Recorded result": "5 (5=81-100%)"
  },
  {
    "Molecule": "COCCCc1nc(C(F)(F)F)nc2cccc(Oc3ncc(Cl)cn3)c12",
    "Recorded result": "5 (5=81-100%)"
  },
  {
    "Molecule": "CON=C(C)c1nc(C(F)(F)F)nc2cccc(Oc3ncc(Cl)cn3)c12",
    "Recorded result": "4 (4=61-80%)"
  },
  {
    "Molecule": "FC(F)(F)c1nc(CCC=NOCC2CC2)c2c(Oc3ncc(Cl)cn3)cccc2n1 [Compound 1.005]",
    "Recorded result": "5 (5=81-100%)"
  },
  {
    "Molecule": "FC(F)c1cc(-c2nc(C(F)(F)F)nc3cccc(Oc4ncc(Cl)cn4)c23)on1",
    "Recorded result": "5 (5=81-100%)"
  },
  {
    "Molecule": "CCON=CCc1nc(C(F)(F)F)nc2cccc(Oc3ncc(Cl)cn3)c12",
    "Recorded result": "3 (3=41-60%)"
  },
  {
    "Molecule": "CON1CCC(CCc2nc(C(F)(F)F)nc3cccc(Oc4ncc(Cl)cn4)c23)CC1",
    "Recorded result": "4 (4=61-80%)"
  },
  {
    "Molecule": "N#CCCc1nc(C(F)(F)F)nc2cccc(Oc3ncc(Cl)cn3)c12",
    "Recorded result": "5 (5=81-100%)"
  },
  {
    "Molecule": "FC(F)(F)c1nc(CCC2CCOC2)c2c(Oc3ncc(Cl)cn3)cccc2n1 (stereo not drawn)",
    "Recorded result": "5 (5=81-100%)"
  }
]
